Cited source: ChEMBL document CHEMBL4270554

Assay: Solubility of the compound in 10% DMSO/50% PEG400/40% water at pH 5 by HPLC analysis
Assay type: physicochemical
Measurement label: solubility (µg/mL)

# Sample smiles, Measurement label, Observed value
records = [
    ("Cl.N#C/C(=C\\c1cccc2cnccc12)c1c[nH]c2ccccc12", "solubility", 1200),
]

* * *

Experiment: Antiproliferative activity against human ARPE19 cells after 72 hrs by MTT assay
Assay type: cell-based
Conditions: ARPE-19 cells

# Sample smiles, GI50 at 72 h
rows = [
    ("N#C/C(=C\\c1cccc2cnccc12)c1c[nH]c2ccccc12", "> 10 µM"),
]

* * *

Recorded fold change (FC) for the following compounds
System: hTERT-BJ
Experiment: Inhibition of mitotic progression in human hTERT-BJ cells transformed with hTert, small t, shRNAs against p53 and pRb and H-RasV12-ER assessed as increase in phosphorylated histone H3 (Ser10) level at 5 uM after 24 hrs by immunoblot analysis relative to control
Type: functional
Measurement label: fold change (FC)

# Sample smiles, Observed value
rows = [
    ("N#C/C(=C\\c1cccc2cnccc12)c1c[nH]c2ccc(OCCCN3CCCC3)cc12", 0.9),
    ("COc1ccc2[nH]cc(/C(C#N)=C/c3cccc4cnccc34)c2c1", 3),
    ("N#C/C(=C\\c1cncc2ccccc12)c1c[nH]c2ccccc12", 1.3),
    ("N#C/C(=C\\c1cccc2cnccc12)c1c[nH]c2ccc(Br)cc12", 2.1),
    ("N#C/C(=C\\c1cccc2cnccc12)c1c[nH]c2cc(Br)ccc12", 1.6),
    ("N#C/C(=C\\c1cccc2cnccc12)c1c[nH]c2ccc(OCCC3OCCO3)cc12", 1),
]
